Target desc: T1, human CACNG1 nanodisc (Homo sapiens, UniProt Q06432)
T1 construct: made in house
T1 sequence (Q06432 whole entry): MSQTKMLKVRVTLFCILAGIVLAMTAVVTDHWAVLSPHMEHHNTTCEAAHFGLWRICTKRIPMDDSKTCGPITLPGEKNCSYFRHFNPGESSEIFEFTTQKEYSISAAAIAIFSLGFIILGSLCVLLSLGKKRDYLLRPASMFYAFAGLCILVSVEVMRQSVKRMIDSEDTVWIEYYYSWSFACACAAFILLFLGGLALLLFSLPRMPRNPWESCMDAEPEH
Measurement description: Biacore binding kinetics of anti-CACNG1 monoclonal antibodies to human CACNG1 nanodisc, antigen capture format
Test context: 25° C., 1:1 binding model
Reported kd values for a set of molecules

H2aM31941N: anti-hCACNG1 antibody, HCVR/LCVR SEQ ID NOs: 114/122 (antibody, V domains shown) VH: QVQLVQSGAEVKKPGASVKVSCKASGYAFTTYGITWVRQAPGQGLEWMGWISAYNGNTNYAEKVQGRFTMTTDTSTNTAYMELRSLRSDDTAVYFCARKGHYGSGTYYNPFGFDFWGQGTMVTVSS VL: EIMLMQSPGTLSLSPGERATLSCRASQSVSSSYLAWYQQKPGQAPRLLIYGASSRATDIPDRFSGSGSGTDFTLTISRLEPEDFAVYFCQQYYGSPWTFGQGTKVEIK	0.000406 s⁻¹

Here is another molecule to look at.
Exam item: If you can, please state the reported kd value of REGN7660: anti-hCACNG1 antibody, HCVR/LCVR SEQ ID NOs: 130/138 (antibody, V domains shown) VH: EVQLVESGGGLVQPGGSLKLSCTASGLTLSDSAMHWVRQASGKGLEWVGRIRNKANRYATEYAASVKGRFTISRDDSKNTAYLQMNSLKTEDTAVYYCTRNWKIFLFDYWGQGTLVTVSS VL: EIVLTQSPGTLTLSPGERATLSCRASQSVGSKYLAWFQQKRGQAPRLLIYGASSRTSGIPDRISGSGSGTDFTLTISRLEPEDFAVYYCQQYGSSPWTFGQGTKVEIK .
Marked response: 0.0243 s⁻¹
